The reported measurements were obtained from ChEMBL document CHEMBL1156076.

# protocol: Cytotoxicity against human HuH7 cells
# Type: cell-based, Huh-7
observed-property: CC50

Answer with reported CC50 of NC(=S)Nc1cccc(OCCCCCCCCNC(=S)Nc2ccccc2Br)c1
36 µM

Answer with reported CC50 of NC(=S)Nc1cccc(OCCCCCCCCNC(=S)Nc2ccc3c(c2)c2ccccc2n3CCc2ccccc2)c1
> 50 µM

Answer with reported CC50 of NC(=S)Nc1cccc(OCCCCCN2CCN(c3cccnc3)C2=O)c1
> 50 µM

Answer with reported CC50 of Cn1c2ccccc2c2cc(NC(=S)NCCCCCCCCOc3cccc(NC(N)=S)c3)ccc21
> 50 µM

Answer with reported CC50 of NC(=S)Nc1cccc(OCCCCCNC(=S)Nc2ccc(Cl)cc2)c1
> 50 µM

Answer with reported CC50 of NC(=S)Nc1cccc(OCCCCCN2CCN(c3ccccc3-c3ccccc3)C2=S)c1
> 50 µM

Answer with reported CC50 of CCCn1c2ccccc2c2cc(NC(=S)NCCCCCCCCOc3cccc(NC(N)=S)c3)ccc21
> 50 µM

Answer with reported CC50 of NC(=S)Nc1cccc(OCCCCCNC(=S)Nc2cccc3ccccc23)c1
> 50 µM

Answer with reported CC50 of NC(=S)Nc1cccc(OCCCCCN2CCN(c3ccc(C4CCCCC4)cc3)C2=S)c1
> 50 µM

Answer with reported CC50 of NC(=S)Nc1cccc(OCCCCCN2CCCN(c3ccc(Cl)cc3)C2=O)c1
15 µM

Answer with reported CC50 of CCCCn1c2ccccc2c2cc(NC(=S)NCCCCCCCCOc3cccc(NC(N)=S)c3)ccc21
> 50 µM

Answer with reported CC50 of NC(=S)Nc1cccc(OCCCCCCCCNC(=S)Nc2ccc(C3CCCCC3)cc2)c1
> 50 µM

Answer with reported CC50 of NC(=S)Nc1cccc(OCCCCCN2CCN(c3ccc(Oc4ccccc4)cc3)C2=O)c1
> 50 µM

Answer with reported CC50 of NC(=S)Nc1cccc(OCCCCCCCCNC(=S)Nc2ccc3c(c2)c2ccccc2n3Cc2ccccc2)c1
> 50 µM

Answer with reported CC50 of CCCCCCn1c2ccccc2c2cc(NC(=S)NCCCCCCCCOc3cccc(NC(N)=S)c3)ccc21
> 50 µM

Answer with reported CC50 of NC(=S)Nc1cccc(OCCCCCCCCNC(=S)Nc2ccccc2)c1
> 50 µM

Answer with reported CC50 of NC(=S)Nc1cccc(OCCCCCN2CCN(c3ccc(Cl)cc3)C2=O)c1
39 µM

Answer with reported CC50 of Cc1c(NC(N)=S)cccc1OCCCCCNC(=S)Nc1cccc2ccccc12
> 50 µM

Answer with reported CC50 of NC(=S)Nc1cccc(OCCCCCCCCNC(=S)Nc2cccc(Br)c2)c1
20 µM

Answer with reported CC50 of NC(=S)Nc1cccc(OCCCCCCCCNC(=S)Nc2ccc3c(c2)C(=O)c2ccccc2-3)c1
> 50 µM

Answer with reported CC50 of Cc1ccc(OCCCCCNC(=S)Nc2cccc3ccccc23)cc1NC(N)=S
> 50 µM

Answer with reported CC50 of NC(=S)Nc1cccc(OCCCCCN2CCN(c3ccc(Cl)c(Cl)c3)C2=S)c1
> 50 µM

Answer with reported CC50 of NC(=S)Nc1cccc(OCCCCCCCCNC(=S)Nc2ccc3c(c2)Cc2ccccc2-3)c1
25 µM

Answer with reported CC50 of Cc1cc(C)cc(-n2c3ccccc3c3cc(NC(=S)NCCCCCCCCOc4cccc(NC(N)=S)c4)ccc32)c1
> 50 µM

Answer with reported CC50 of NC(=S)Nc1cccc(OCCCCCCCCNC(=S)Nc2ccc3[nH]c4ccccc4c3c2)c1
> 50 µM

Answer with reported CC50 of NC(=S)Nc1cccc(OCCCCCc2ccccc2)c1
22 µM

Answer with reported CC50 of Cc1ccc(-n2c3ccccc3c3cc(NC(=S)NCCCCCCCCOc4cccc(NC(N)=S)c4)ccc32)cc1
> 50 µM

Answer with reported CC50 of CCCCCn1c2ccccc2c2cc(NC(=S)NCCCCCCCCOc3cccc(NC(N)=S)c3)ccc21
> 50 µM

Answer with reported CC50 of NC(=S)Nc1cccc(OCCCCCCCCNC(=S)Nc2ccc3c(c2)CCC3)c1
34 µM

Answer with reported CC50 of NC(=S)Nc1cccc(OCCCCCCCCNC(=S)Nc2cc(Cl)cc(Cl)c2)c1
12 µM

Answer with reported CC50 of NC(=S)Nc1cccc(OCCCCCCNC(=S)Nc2cc(Cl)cc(Cl)c2)c1
21 µM

Answer with reported CC50 of NC(=S)Nc1cccc(OCCCCCN2CCN(c3ccc(Cl)cc3)C2=S)c1
> 50 µM

Answer with reported CC50 of NC(=S)Nc1cccc(OCCCCCN2CCCCN(c3ccc(Cl)cc3)C2=O)c1
13 µM

Answer with reported CC50 of NC(=S)Nc1cccc(OCCCCCCCNC(=S)Nc2cc(Cl)cc(Cl)c2)c1
20 µM

Answer with reported CC50 of CC(C)(C)c1ccc(NC(=S)NCCCCCCCCOc2cccc(NC(N)=S)c2)cc1
17 µM

Answer with reported CC50 of NC(=S)Nc1cccc(OCCCCCN2CCN(c3ccc(Cl)c(Cl)c3)C2=O)c1
13 µM

Answer with reported CC50 of NC(=S)Nc1cccc(OCCCCCNC(=O)Nc2cccc3ccccc23)c1
> 50 µM

Answer with reported CC50 of NC(=S)Nc1cccc(OCCCCCCCCNC(=S)Nc2ccc(Cl)cc2)c1
18 µM

Answer with reported CC50 of NC(=S)Nc1cccc(OCCCCCN2CCN(c3ccccc3-c3ccccc3)C2=O)c1
12 µM

Answer with reported CC50 of CCn1c2ccccc2c2cc(NC(=S)NCCCCCCCCOc3cccc(NC(N)=S)c3)ccc21
> 50 µM
